Origin of the recorded values: ChEMBL document CHEMBL3393036

# inhibition annotations
- target.or.system: Insulin receptor (Homo sapiens)
- test.name: Inhibition of INSR (unknown origin) at 5.5 uM by Caliper Mobility Shift Assay

Use the examples below as a reference point.
CC(=O)Nc1cc(-c2c(-c3ccc(F)cc3)nc(S/C=C\C(=O)O)n2C2CC2)ccn1 = < 50%
COC(Cn1c(SC2CCC(C(=O)O)CC2O)nc(-c2ccc(F)cc2)c1-c1ccnc(NC(C)=O)c1)OC (stereo not given) = < 50%
CC(=O)Nc1cc(-c2c(-c3ccc(F)cc3)nc(S/C=C\C(=O)O)n2C2CCCCC2)ccn1 = < 50%
CC(=O)Nc1cc(-c2c(-c3ccc(F)cc3)nc(S/C=C\C(=O)O)n2CC2CCCO2)ccn1 (racemic) = < 50%

Q) What value of measured inhibition is listed for CC(=O)Nc1cc(-c2c(-c3ccc(F)cc3)nc(Sc3cccc(I)n3)n2C2CCCCC2)ccn1 ?
A) < 50%

----------
Items are presented alongside their recorded inhibition.
- Test system: Fibroblast growth factor receptor 3 (Homo sapiens), P22607 [K650E]
- Sequence (P22607 whole entry K650E): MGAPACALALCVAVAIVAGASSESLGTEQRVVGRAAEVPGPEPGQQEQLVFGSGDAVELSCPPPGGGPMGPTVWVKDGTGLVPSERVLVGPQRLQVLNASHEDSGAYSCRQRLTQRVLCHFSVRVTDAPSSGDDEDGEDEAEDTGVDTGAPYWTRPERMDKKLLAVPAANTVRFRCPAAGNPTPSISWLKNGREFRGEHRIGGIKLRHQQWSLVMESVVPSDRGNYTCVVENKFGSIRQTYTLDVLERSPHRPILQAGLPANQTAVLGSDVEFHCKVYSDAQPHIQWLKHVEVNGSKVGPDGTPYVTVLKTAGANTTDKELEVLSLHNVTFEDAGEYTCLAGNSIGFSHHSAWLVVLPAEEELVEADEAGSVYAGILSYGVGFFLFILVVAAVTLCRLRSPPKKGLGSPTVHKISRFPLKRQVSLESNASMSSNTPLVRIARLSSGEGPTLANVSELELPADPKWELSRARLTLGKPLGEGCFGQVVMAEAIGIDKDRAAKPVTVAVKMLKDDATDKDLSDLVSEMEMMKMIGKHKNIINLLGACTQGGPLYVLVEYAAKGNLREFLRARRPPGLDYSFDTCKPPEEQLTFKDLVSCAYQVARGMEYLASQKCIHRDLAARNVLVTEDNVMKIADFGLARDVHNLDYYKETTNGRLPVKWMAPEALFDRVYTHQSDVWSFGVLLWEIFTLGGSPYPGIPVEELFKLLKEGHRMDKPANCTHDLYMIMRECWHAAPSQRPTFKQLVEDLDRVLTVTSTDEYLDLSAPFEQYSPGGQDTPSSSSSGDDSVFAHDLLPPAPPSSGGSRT
- test.name: Inhibition of FGFR3 K650E (unknown origin) at 5.5 uM by Caliper Mobility Shift Assay

Sample answers from the record:
CC(=O)Nc1cc(-c2c(-c3ccc(F)cc3)nc(Sc3cccc(I)n3)n2C2CCCCC2)ccn1 = < 50%
CC(=O)Nc1cc(-c2c(-c3ccc(F)cc3)nc(S/C=C\C(=O)O)n2CC2CCCO2)ccn1 (racemic) = < 50%
COC(Cn1c(SC2CCC(C(=O)O)CC2O)nc(-c2ccc(F)cc2)c1-c1ccnc(NC(C)=O)c1)OC (stereo not given) = < 50%
CC(=O)Nc1cc(-c2c(-c3ccc(F)cc3)nc(S/C=C\C(=O)O)n2C2CCCCC2)ccn1 = < 50%

Please examine the following record next.
Q) # query: inhibition of entry CC(=O)Nc1cc(-c2c(-c3ccc(F)cc3)nc(S/C=C\C(=O)O)n2C2CC2)ccn1
A) < 50%

----------
- target.or.system: Tyrosine-protein kinase Lyn (Homo sapiens) (UniProt P07948)
- Sequence (P07948 2-512 limits assumed): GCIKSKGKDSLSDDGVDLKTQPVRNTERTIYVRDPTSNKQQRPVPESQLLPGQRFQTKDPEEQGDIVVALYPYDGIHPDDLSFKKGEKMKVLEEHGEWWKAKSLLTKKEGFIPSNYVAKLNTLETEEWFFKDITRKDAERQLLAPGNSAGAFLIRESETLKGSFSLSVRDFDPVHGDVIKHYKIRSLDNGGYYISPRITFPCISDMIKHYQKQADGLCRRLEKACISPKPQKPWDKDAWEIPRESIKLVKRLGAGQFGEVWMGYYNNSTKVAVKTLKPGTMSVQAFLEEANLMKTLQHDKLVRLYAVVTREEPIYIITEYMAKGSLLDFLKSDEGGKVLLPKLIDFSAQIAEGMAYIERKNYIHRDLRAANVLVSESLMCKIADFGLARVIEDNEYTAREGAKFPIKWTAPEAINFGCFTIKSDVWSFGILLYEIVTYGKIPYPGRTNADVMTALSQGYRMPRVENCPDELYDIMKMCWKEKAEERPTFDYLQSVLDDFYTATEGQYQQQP
- test.name: Inhibition of LYN (unknown origin) at 5.5 uM by Caliper Mobility Shift Assay
The entries below are paired with their reported inhibition.

CC(=O)Nc1cc(-c2c(-c3ccc(F)cc3)nc(S/C=C\C(=O)O)n2CC2CCCO2)ccn1 (racemic) = < 50%
CC(=O)Nc1cc(-c2c(-c3ccc(F)cc3)nc(S/C=C\C(=O)O)n2C2CCCCC2)ccn1 = < 50%
COC(Cn1c(SC2CCC(C(=O)O)CC2O)nc(-c2ccc(F)cc2)c1-c1ccnc(NC(C)=O)c1)OC (stereo not given) = < 50%
CC(=O)Nc1cc(-c2c(-c3ccc(F)cc3)nc(S/C=C\C(=O)O)n2C2CC2)ccn1 = < 50%

Read the next record carefully.
Q) Give inhibition (Tyrosine-protein kinase Lyn (Homo sapiens) (UniProt P07948)) of the following compound: CC(=O)Nc1cc(-c2c(-c3ccc(F)cc3)nc(Sc3cccc(I)n3)n2C2CCCCC2)ccn1
A) < 50%

----------
- target.or.system: Protein kinase C theta type (Homo sapiens) (UniProt Q04759)
- Sequence (Q04759 whole entry, looked up): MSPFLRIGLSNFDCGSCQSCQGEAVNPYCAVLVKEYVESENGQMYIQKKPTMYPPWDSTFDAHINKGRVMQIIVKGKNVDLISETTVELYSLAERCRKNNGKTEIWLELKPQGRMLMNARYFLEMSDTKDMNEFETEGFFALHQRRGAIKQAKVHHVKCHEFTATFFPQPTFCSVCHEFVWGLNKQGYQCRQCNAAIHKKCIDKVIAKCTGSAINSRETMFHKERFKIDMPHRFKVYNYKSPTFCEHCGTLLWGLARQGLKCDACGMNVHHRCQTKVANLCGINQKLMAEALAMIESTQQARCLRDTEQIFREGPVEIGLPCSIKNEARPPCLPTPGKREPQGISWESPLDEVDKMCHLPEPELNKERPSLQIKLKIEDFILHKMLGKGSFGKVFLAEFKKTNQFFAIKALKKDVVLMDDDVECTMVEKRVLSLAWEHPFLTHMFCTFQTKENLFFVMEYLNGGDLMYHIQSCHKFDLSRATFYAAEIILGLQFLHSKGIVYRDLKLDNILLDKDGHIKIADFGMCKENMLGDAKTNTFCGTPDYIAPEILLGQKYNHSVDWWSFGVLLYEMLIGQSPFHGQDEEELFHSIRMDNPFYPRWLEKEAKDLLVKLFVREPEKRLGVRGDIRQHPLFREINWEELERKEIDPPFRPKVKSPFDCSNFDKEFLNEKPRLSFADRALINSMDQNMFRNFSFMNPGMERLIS
- test.name: Inhibition of PRKCQ (unknown origin) at 5.5 uM by Caliper Mobility Shift Assay
measured.quantity: inhibition

Guide cases for inhibition, answers given:
CC(=O)Nc1cc(-c2c(-c3ccc(F)cc3)nc(S/C=C\C(=O)O)n2CC2CCCO2)ccn1 (racemic) = < 50%
CC(=O)Nc1cc(-c2c(-c3ccc(F)cc3)nc(S/C=C\C(=O)O)n2C2CC2)ccn1 = < 50%
COC(Cn1c(SC2CCC(C(=O)O)CC2O)nc(-c2ccc(F)cc2)c1-c1ccnc(NC(C)=O)c1)OC (stereo not given) = < 50%
CC(=O)Nc1cc(-c2c(-c3ccc(F)cc3)nc(Sc3cccc(I)n3)n2C2CCCCC2)ccn1 = < 50%

Consider now this further molecule.
Q) Which inhibition reading was recorded for the molecule CC(=O)Nc1cc(-c2c(-c3ccc(F)cc3)nc(S/C=C\C(=O)O)n2C2CCCCC2)ccn1 ?
A) < 50%

----------
- Species: Homo sapiens
- test.name: Selectivity ratio of IC50 for JNK3 (unknown origin) to IC50 for p38alpha (unknown origin)
measured.quantity: Ratio IC50

CC(=O)Nc1cc(-c2c(-c3ccc(F)cc3)nc(SC3CCC(C(=O)O)CC3O)n2CC2CCCO2)ccn1 (racemic) = 4.3

[A] CCOC(=O)/C=C/Sc1nc(-c2ccc(F)cc2)c(-c2ccnc(NC(C)=O)c2)n1C1CC1
[B] COC(Cn1c(S/C=C\C(=O)O)nc(-c2ccc(F)cc2)c1-c1ccnc(NC2CC2)c1)OC
Q) Please state the entry with greater Ratio IC50 among A and B . Answer by quoting the chosen item's label.
A) A

----------
Measured inhibition values are reported for all entries that follow.
- target.or.system: Tyrosine-protein kinase SYK (Homo sapiens)
- test.name: Inhibition of SYK (unknown origin) at 5.5 uM by Caliper Mobility Shift Assay

Here are 4 molecules together with their reported answers.
CC(=O)Nc1cc(-c2c(-c3ccc(F)cc3)nc(S/C=C\C(=O)O)n2C2CC2)ccn1 = < 50%
COC(Cn1c(SC2CCC(C(=O)O)CC2O)nc(-c2ccc(F)cc2)c1-c1ccnc(NC(C)=O)c1)OC (stereo not given) = < 50%
CC(=O)Nc1cc(-c2c(-c3ccc(F)cc3)nc(Sc3cccc(I)n3)n2C2CCCCC2)ccn1 = < 50%
CC(=O)Nc1cc(-c2c(-c3ccc(F)cc3)nc(S/C=C\C(=O)O)n2CC2CCCO2)ccn1 (racemic) = < 50%

Now take the following molecule into account.
Q) Suppose we examine the molecule CC(=O)Nc1cc(-c2c(-c3ccc(F)cc3)nc(S/C=C\C(=O)O)n2C2CCCCC2)ccn1 ; what inhibition value has been reported?
A) < 50%

----------
Listed below: inhibition values for each entry.
- target.or.system: Mitogen-activated protein kinase 1 (Homo sapiens) (UniProt P28482)
- Sequence (P28482 whole entry): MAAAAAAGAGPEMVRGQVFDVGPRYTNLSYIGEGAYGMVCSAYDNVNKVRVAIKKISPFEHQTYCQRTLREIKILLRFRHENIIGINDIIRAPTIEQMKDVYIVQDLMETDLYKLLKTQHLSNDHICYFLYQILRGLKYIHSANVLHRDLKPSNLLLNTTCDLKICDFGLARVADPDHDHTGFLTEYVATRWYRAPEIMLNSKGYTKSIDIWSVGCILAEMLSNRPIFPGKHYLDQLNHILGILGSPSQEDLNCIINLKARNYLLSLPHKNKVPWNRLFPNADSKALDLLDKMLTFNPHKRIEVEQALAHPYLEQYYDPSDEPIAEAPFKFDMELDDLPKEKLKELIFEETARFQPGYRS
- test.name: Inhibition of MAPK1 (ERK2) (unknown origin) at 5.5 uM by Caliper Mobility Shift Assay

Take a look at these entries with their results.
COC(Cn1c(SC2CCC(C(=O)O)CC2O)nc(-c2ccc(F)cc2)c1-c1ccnc(NC(C)=O)c1)OC (stereo not given) = < 50%
CC(=O)Nc1cc(-c2c(-c3ccc(F)cc3)nc(Sc3cccc(I)n3)n2C2CCCCC2)ccn1 = < 50%
CC(=O)Nc1cc(-c2c(-c3ccc(F)cc3)nc(S/C=C\C(=O)O)n2C2CC2)ccn1 = < 50%
CC(=O)Nc1cc(-c2c(-c3ccc(F)cc3)nc(S/C=C\C(=O)O)n2C2CCCCC2)ccn1 = < 50%

Turning now to a further molecule:
Q) So what does the record say about inhibition for CC(=O)Nc1cc(-c2c(-c3ccc(F)cc3)nc(S/C=C\C(=O)O)n2CC2CCCO2)ccn1 (racemic) ?
A) < 50%

----------
List of inhibition values.
- target.or.system: Interleukin-1 receptor-associated kinase 1 (Homo sapiens) (UniProt P51617)
- Sequence (P51617 whole entry, looked up): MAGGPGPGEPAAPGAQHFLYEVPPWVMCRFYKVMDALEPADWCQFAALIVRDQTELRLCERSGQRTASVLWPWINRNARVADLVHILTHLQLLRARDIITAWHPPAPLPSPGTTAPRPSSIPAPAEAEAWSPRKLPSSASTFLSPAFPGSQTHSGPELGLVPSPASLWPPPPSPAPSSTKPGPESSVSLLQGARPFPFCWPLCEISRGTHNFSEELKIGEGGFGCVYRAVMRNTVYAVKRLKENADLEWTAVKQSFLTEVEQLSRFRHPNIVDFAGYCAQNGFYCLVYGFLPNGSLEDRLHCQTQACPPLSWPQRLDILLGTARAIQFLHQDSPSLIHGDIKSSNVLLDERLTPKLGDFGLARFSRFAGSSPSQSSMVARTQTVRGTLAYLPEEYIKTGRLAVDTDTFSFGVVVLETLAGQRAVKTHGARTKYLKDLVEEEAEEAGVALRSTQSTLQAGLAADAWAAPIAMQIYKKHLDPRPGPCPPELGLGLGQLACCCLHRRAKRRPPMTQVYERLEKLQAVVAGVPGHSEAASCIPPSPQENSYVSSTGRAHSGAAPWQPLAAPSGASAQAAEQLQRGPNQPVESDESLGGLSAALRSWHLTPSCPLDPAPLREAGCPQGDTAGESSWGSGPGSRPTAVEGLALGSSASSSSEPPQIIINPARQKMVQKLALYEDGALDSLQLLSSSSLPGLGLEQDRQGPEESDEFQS
- test.name: Inhibition of IRAK1 (unknown origin) at 5.5 uM by Caliper Mobility Shift Assay

CC(=O)Nc1cc(-c2c(-c3ccc(F)cc3)nc(S/C=C\C(=O)O)n2CC2CCCO2)ccn1 (racemic) = < 50%

Q) Endpoint output: inhibition of CC(=O)Nc1cc(-c2c(-c3ccc(F)cc3)nc(Sc3cccc(I)n3)n2C2CCCCC2)ccn1 . Value?
A) < 50%

Q) Please give the measured inhibition for this compound: COC(Cn1c(SC2CCC(C(=O)O)CC2O)nc(-c2ccc(F)cc2)c1-c1ccnc(NC(C)=O)c1)OC (stereo not given)
A) < 50%

Q) Which measured inhibition value corresponds to CC(=O)Nc1cc(-c2c(-c3ccc(F)cc3)nc(S/C=C\C(=O)O)n2C2CC2)ccn1 ?
A) < 50%

Q) Please report the recorded inhibition for CC(=O)Nc1cc(-c2c(-c3ccc(F)cc3)nc(S/C=C\C(=O)O)n2C2CCCCC2)ccn1 .
A) < 50%

----------
- target.or.system: Mitogen-activated protein kinase 14 (Homo sapiens)
- Sequence (Q16539 whole entry): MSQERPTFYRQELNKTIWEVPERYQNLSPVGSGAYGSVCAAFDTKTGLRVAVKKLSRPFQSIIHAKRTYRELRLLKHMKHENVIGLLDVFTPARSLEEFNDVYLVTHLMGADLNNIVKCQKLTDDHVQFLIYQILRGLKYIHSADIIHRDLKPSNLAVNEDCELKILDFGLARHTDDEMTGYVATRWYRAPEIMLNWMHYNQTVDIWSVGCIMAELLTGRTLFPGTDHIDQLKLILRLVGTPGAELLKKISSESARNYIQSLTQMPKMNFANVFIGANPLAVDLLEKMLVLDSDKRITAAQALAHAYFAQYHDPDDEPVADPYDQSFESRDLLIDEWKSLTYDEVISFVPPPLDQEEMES
- test.name: Inhibition of p38alpha (unknown origin) assessed as phosphorylation of ATF-2 by ELISA
measured.quantity: IC50 (µM)

Here is how some compounds turned out for IC50.
CC(=O)Nc1cc(-c2c(-c3ccc(F)cc3)nc(S/C=C\C(=O)O)n2CC2CCCCC2)ccn1 = 0.039
CC(=O)Nc1cc(-c2c(-c3ccc(F)cc3)nc(S/C=C\C(=O)O)n2C2CCCCC2)ccn1 = 0.165
CCC(C)Nc1cc(-c2c(-c3ccc(F)cc3)nc(S/C=C\C(=O)O)n2CC(OC)OC)ccn1 (centres undefined) = 0.034
CC(=O)Nc1cc(-c2c(-c3ccc(F)cc3)nc(S/C=C\C(=O)O)n2C)ccn1 = 0.191
CC(=O)Nc1cc(-c2c(-c3ccc(F)cc3)nc(S/C=C\C(=O)O)n2C2CC2)ccn1 = 0.123

[P] CC(=O)Nc1cc(-c2c(-c3ccc(F)cc3)nc(S/C=C/C(=O)O)n2CC2CC2)ccn1
[Q] CC(=O)Nc1cc(-c2c(-c3ccc(F)cc3)nc(SC3CCC(C(=O)O)CC3O)n2C2CCCCC2)ccn1 (centres undefined)
[R] CCOC(=O)/C=C/Sc1nc(-c2ccc(F)cc2)c(-c2ccnc(NC(C)=O)c2)n1CC(OC)OC
[S] CC(=O)CSc1nc(-c2ccc(F)cc2)c(-c2ccnc(NC(C)=O)c2)n1C
[T] COC(Cn1c(SC2CCC(C(=O)O)CC2O)nc(-c2ccc(F)cc2)c1-c1ccnc(NC(C)=O)c1)OC (centres undefined)
Q) With regard to IC50, arrange the entries in ascending order, please. Please, when replying, give the labels in the order that was requested.
A) S, T, P, Q, R
